# target-entity: Jak2 (UniProt O60674)
# Sequence (O60674 whole entry, looked up): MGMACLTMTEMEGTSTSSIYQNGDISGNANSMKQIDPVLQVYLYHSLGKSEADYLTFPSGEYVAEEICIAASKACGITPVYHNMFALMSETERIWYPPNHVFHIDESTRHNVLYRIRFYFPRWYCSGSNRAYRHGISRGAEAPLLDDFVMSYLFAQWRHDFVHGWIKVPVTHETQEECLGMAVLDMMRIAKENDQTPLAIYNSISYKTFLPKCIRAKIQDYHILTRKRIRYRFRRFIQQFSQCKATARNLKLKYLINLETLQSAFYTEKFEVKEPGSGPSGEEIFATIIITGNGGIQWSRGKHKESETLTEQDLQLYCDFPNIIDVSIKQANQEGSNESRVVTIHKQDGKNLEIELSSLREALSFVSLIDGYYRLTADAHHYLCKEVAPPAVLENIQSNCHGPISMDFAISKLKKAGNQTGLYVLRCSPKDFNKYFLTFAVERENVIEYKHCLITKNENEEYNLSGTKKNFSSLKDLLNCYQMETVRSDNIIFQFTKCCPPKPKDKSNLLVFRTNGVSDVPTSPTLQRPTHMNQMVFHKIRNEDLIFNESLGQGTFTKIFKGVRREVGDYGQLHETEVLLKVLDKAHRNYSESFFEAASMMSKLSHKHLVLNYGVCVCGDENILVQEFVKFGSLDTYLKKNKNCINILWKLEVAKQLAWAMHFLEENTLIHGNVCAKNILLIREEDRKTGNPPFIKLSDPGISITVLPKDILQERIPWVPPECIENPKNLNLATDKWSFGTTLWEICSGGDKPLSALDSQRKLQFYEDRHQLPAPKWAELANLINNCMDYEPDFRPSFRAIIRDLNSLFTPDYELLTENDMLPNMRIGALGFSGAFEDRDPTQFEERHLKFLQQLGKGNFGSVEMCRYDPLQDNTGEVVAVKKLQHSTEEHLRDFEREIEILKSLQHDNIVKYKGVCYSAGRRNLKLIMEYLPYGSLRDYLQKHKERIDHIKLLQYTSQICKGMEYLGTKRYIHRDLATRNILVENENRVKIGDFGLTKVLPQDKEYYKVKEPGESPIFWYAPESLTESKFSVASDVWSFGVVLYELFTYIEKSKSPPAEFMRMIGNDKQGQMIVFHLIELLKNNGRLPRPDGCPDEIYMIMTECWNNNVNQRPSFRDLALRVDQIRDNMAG
# assay: phosphorylation enrichment, bacterial display (enrichment ratio); higher = better substrate or ligand; peptides without Tyr show the background
measurement-kind: phosphorylation enrichment

TPGPNYCPGFN [USH2A_Y463_R464C_YF] ... 0.662

Ask | Fill in: phosphorylation enrichment of RLGVTYEQALA [MAP2_Y996_G991R] is ___
Reply | 1.15

Ask | Need phosphorylation enrichment, item ACCLLYHGDVV [TUBA4A_Y319_R320H]
Reply | 0.797

Ask | Quick one: phosphorylation enrichment for FKDGQYWIRGQ [ACSF3_Y466_R471Q] ?
Reply | 0.507

Ask | May I ask what phosphorylation enrichment has been recorded for TNFRLYLRSLE [MTM1_Y71_YF] ?
Reply | 1.29

Ask | Requested read-out: phosphorylation enrichment. Entry: PMQLPYDSTWE [PDGFRB_Y589]
Reply | 1.24

Ask | Given RVGVDYEGGGC [PLOD1_Y675] , state its recorded phosphorylation enrichment.
Reply | 0.377

Ask | # phosphorylation enrichment lookup, item LGRTVYADCLA [ABCA4_Y2063_L2060R]
Reply | 1.76

Ask | phosphorylation enrichment for EQDRAYLEGTC [HLA-C_Y183_L180D] ?
Reply | 0.978

Ask | // lookup phosphorylation enrichment for CTTIHYNYLCN [TP53_Y234_M237L]
Reply | 0.655

Ask | Recorded phosphorylation enrichment for LSEEKYELKEG [TREM1_Y29_T25S] , please?
Reply | 1.18

Ask | # query: phosphorylation enrichment of entry IRKKYYRAILE [CHD7_Y1218_Q1214R]
Reply | 0.439

Ask | I'd like to know its phosphorylation enrichment. The sequence in question is KMKGDYFCFLA [YWHAG_Y130_R132C_YF]
Reply | 6.97

Ask | Reported phosphorylation enrichment for RLLVVYTWTQR [HBB_Y36_P37T] : what is it?
Reply | 1.08

Ask | Query (sequence): EKEKEYMLPLD [DNM2_Y563_K562E] ; field requested: phosphorylation enrichment
Reply | 0.743

Ask | May I ask what phosphorylation enrichment has been recorded for SNFRAYATEPQ [TNNI3_Y29_H34Q_YF] ?
Reply | 0.565

Ask | // lookup phosphorylation enrichment for ISKKRYAGLLF [POLD1_Y809]
Reply | 0.658

Ask | Please report the recorded phosphorylation enrichment for MSSAGYRAAEG [COL6A3_Y543_T538M] .
Reply | 0.529

Ask | Give its phosphorylation enrichment value. Item: GIVEDYRPTFF [ACVRL1_Y421_P424T_YF]
Reply | 0.838

Ask | Look up phosphorylation enrichment for this sequence: NLPGGYSGSVK [MCPH1_Y606]
Reply | 0.618

Ask | // returns reported phosphorylation enrichment for input CENNRYGMGAS [PDHA1_Y227_T231A]
Reply | 0.629

Ask | If you can, please state the reported phosphorylation enrichment value of TFEPNYGTVKQ [RAPGEF6_Y1447_YF] .
Reply | 0.488

---

# target-entity: Fes (UniProt P07332)
# Sequence (P07332 whole entry, looked up): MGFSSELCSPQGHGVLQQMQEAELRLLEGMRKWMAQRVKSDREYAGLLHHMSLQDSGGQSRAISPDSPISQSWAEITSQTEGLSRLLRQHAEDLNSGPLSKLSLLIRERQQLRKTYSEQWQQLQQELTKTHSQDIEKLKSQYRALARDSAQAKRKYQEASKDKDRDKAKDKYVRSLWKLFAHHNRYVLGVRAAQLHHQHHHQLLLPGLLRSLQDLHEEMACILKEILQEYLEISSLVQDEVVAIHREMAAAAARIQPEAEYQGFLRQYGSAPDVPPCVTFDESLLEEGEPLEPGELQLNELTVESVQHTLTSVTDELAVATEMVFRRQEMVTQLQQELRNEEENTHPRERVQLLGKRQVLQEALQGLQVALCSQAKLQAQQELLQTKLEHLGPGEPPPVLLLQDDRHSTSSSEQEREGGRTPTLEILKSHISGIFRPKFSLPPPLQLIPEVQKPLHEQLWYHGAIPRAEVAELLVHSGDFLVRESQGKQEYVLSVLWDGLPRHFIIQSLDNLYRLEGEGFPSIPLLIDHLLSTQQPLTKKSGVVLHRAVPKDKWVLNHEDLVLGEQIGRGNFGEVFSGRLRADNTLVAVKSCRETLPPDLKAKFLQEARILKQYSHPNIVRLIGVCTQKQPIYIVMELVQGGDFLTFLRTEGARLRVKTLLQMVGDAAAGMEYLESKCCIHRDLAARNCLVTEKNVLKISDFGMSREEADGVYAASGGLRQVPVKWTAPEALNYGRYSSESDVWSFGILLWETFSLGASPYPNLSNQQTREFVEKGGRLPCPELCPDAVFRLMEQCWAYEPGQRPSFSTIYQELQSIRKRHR
# assay: phosphorylation enrichment, bacterial display (enrichment ratio); higher = better substrate or ligand; peptides without Tyr show the background
measurement-kind: phosphorylation enrichment
Field format: numeric only.

GRQWNYVASML [KLHL4_Y552_S557L] ... 0.809
DGTIVYTGLET [USH2A_Y4487] ... 1.01
NSFKYYMSDDI [ATRX_Y204_C200S] ... 1.01

Please look at the following sequence next.
Ask | Short answer please: phosphorylation enrichment, Fes (UniProt P07332), entry YHRQLYHKCTH [F12_Y58]
Reply | 0.795

---

# Tested on: AncSZ
# assay: phosphorylation enrichment, bacterial display (enrichment ratio); higher = better substrate or ligand; peptides without Tyr show the background
measurement-kind: phosphorylation enrichment
Kindly provide the number alone.

Below: 2 sequences and their reported phosphorylation enrichment.
KVALLYKPYFY [POLE_Y100_P99L] ... 0.987
TFEPNYGTVKQ [RAPGEF6_Y1447_YF] ... 1.01

Ask | Please tell me: phosphorylation enrichment of ISIFRYAKGQP [MPZ_Y82_H81R] , system AncSZ?
Reply | 0.791

Ask | Param readout = phosphorylation enrichment; param system = AncSZ; param query = LYEDRYLLGTS [ASS1_Y87] ; response: value
Reply | 0.982

Ask | Find phosphorylation enrichment (AncSZ) for the entry TKVVHYWKWIK [KLK2_Y249_R250W]
Reply | 0.812

Ask | Can you look up phosphorylation enrichment on AncSZ for SLFNGYVFSGV [NEIL3_Y71_YF] ?
Reply | 0.779

Ask | What phosphorylation enrichment appears in the records for this sequence with AncSZ? VMAALYGRLYE [BTD_Y536_T532M]
Reply | 0.795

Ask | Kindly state the measured phosphorylation enrichment obtained for FIATQYSLRPR [LBR_Y166_YF] with AncSZ.
Reply | 0.635

Ask | For AncSZ, provide phosphorylation enrichment of YSIAQYCCRMG [LRRK2_Y2023_G2019S] please.
Reply | 1.24

Ask | Identify the measured phosphorylation enrichment of LYRYGYANTSE [SI_Y1233_C1229Y] for AncSZ.
Reply | 0.806

Ask | Form field - read-out: phosphorylation enrichment; system: AncSZ; submitted item: LVTAWYIGFLC [KCNQ2_Y237]
Reply | 2.1

Ask | Item: DFGSGYPNDPK [RNASEH2A_Y210_YF] Test system: AncSZ Read-out: phosphorylation enrichment Value: ?
Reply | 0.778

Ask | # get_value(readout= phosphorylation enrichment, system= AncSZ) for GVLKEYGVKVL [CPS1_Y529]
Reply | 0.52

Ask | Fill in the recorded phosphorylation enrichment for this sequence, with AncSZ as test system: FPKAHYHWLVL [APTX_Y214_R213H_YF]
Reply | 0.819

Ask | Record lookup: for AncSZ, what phosphorylation enrichment belongs to NIKKEYTKMVQ [PMS2_Y181_A182T] ?
Reply | 0.494

Ask | Form: Entry = GDPTEYYITAI [IGSF22_Y501_S503I] | System = AncSZ | phosphorylation enrichment = ____
Reply | 1.95

Ask | Form: Entry = YKGKNYKPLDL [RPL35_Y78_K77N] | System = AncSZ | phosphorylation enrichment = ____
Reply | 0.423

---

phosphorylation enrichment by entry:
# target-entity: Jak2 (UniProt O60674)
# assay: phosphorylation enrichment, bacterial display (enrichment ratio); higher = better substrate or ligand; peptides without Tyr show the background
API note: the answer field is a bare number with no unit suffix.

Please review the following examples before continuing.
FFVVRYCWLRR [MPZ_Y181_YF] ... 0.597
SSQHRYSTPHT [RAF1_Y232_A237T] ... 0.487

Ask | Can you share its phosphorylation enrichment? I mean this sequence: IRTIDYRFTVW [IDS_Y497_YF]
Reply | 1.09

Ask | Param item = QTPVLYAMLFH [MPZ_Y220_D224Y_YF] ; retrieve measured phosphorylation enrichment.
Reply | 1.39

---

# Test system: Fer (mouse)
# assay: phosphorylation enrichment, bacterial display (enrichment ratio); higher = better substrate or ligand; peptides without Tyr show the background
Answer not satisfied if phosphorylation enrichment is under 0.4, and satisfied if it is 0.4 or more.

Ask | Is reported phosphorylation enrichment greater than or equal to 0.4 here: ACCLLYHGDVV [TUBA4A_Y319_R320H]
Reply | satisfied

Ask | Check if phosphorylation enrichment >= 0.4 (inclusive). Item: KLSCSYSHLSA [C4BPA_Y470_W473L]
Reply | satisfied

Ask | Is phosphorylation enrichment for GRQWNYVASML [KLHL4_Y552_S557L] at or above 0.4?
Reply | not satisfied

Ask | Is phosphorylation enrichment for EKRDAYVSCLN [GSR_Y150_R153C] at or above 0.4?
Reply | satisfied

---

# target-entity: EPHB2 (UniProt P29323)
# Sequence (P29323 whole entry, looked up): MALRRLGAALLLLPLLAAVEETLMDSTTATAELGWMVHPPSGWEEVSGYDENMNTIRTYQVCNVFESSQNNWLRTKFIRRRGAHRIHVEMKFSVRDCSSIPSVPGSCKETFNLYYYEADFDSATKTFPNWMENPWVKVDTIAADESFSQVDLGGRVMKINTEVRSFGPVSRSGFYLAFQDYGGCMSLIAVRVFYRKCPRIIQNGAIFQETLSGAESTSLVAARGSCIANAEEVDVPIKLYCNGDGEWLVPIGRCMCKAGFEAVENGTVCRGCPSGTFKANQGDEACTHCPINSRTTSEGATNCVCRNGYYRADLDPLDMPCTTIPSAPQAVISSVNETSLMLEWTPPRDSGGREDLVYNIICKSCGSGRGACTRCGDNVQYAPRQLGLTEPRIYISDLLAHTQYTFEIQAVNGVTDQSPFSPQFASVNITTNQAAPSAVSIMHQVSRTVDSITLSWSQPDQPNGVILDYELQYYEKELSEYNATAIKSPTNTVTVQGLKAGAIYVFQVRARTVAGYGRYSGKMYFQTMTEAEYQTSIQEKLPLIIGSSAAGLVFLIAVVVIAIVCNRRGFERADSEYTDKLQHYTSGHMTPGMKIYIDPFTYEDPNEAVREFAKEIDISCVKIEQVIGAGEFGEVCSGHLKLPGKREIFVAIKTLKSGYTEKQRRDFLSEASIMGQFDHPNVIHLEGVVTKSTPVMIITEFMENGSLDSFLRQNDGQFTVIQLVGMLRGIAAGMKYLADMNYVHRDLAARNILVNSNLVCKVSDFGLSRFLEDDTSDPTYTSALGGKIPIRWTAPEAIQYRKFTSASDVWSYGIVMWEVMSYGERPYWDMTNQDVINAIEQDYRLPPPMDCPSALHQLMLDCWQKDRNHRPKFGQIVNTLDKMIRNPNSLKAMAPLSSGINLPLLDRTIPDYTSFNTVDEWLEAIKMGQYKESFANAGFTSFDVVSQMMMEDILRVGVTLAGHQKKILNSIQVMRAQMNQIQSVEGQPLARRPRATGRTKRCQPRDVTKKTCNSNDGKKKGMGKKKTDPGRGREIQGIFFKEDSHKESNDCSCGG
# assay: phosphorylation enrichment, bacterial display (enrichment ratio); higher = better substrate or ligand; peptides without Tyr show the background
Hi, to clarify the labels: T covers phosphorylation enrichment from 0.6 upward, F covers anything below 0.6.

Reference set, count: 5
KGYCGYSYDDI [TMEM230_Y110_R108C] ... F
TRSYKYLLLSM [NF1_Y491] ... T
TIEDSYRKQVV [KRAS_Y40] ... F
SGDINYGQFAQ [PLCG1_Y210_T209N] ... T
NLPGGYSGSVK [MCPH1_Y606] ... F

Turning now to a further record.
Ask | State whether the measured phosphorylation enrichment reaches 0.6, counting equality as reaching it, for PAVGIYNGNIN [CDCP1_Y707_D709G]
Reply | T

---

This section presents sequences with their documented SH2 binding enrichment values.
# target-entity: Grb2 SH2 (UniProt P62993)
# Sequence (P62993 whole entry, looked up): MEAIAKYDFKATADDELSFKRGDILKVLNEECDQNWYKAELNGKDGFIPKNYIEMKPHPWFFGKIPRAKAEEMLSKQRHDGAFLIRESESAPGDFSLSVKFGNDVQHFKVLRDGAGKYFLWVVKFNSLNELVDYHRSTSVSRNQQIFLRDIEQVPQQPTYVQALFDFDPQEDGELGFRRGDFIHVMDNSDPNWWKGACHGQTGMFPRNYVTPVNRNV
# assay: SH2 binding enrichment of the phosphorylated peptide, bacterial display (enrichment ratio); higher = better substrate or ligand; peptides without Tyr show the background

RLLVFYPWTQR [HBB_Y36_V35F] ... 2.4
EFAAGYNVKFD [GPX4_Y123] ... 0.707
SGKSEYLLPVA [MYLK_Y611_R607G] ... 0.801

Ask | Which SH2 binding enrichment reading was recorded for the sequence TNITEYCRDLI [RECQL_Y492_K487T] ?
Reply | 0.759

Ask | Name the reported SH2 binding enrichment value associated with the sequence EFHRLYEEFTR [PIK3R1_Y467_D464H_YF]
Reply | 0.86

Ask | Look up SH2 binding enrichment: DIPIRYSITGV [CDH4_Y205]
Reply | 0.774

// data source = the supplement of paper PMC10065799
